B1: RHOBTB2 (parent)
chain: LYTGELDENERDLMHIAHIAELLE

- Variants of: B1
- Procedure summary: protein stability index of a GFP-peptide fusion (GPS, HEK-293T) (PSI 1-6); higher = more stable;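 also: lentivirally expressed fusions sorted by FACS into six bins by GFP to DsRed ratio, PSI derived from sequencing read proportions per bin multiplied by bin number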
- Condition summary: c terminus: a fixed tail appended
Assay endpoint: protein stability index
Returns: the value as a bare number; no unit string appended.

Look over these answered cases.
1. A20M
2.01
2. G4D
2.53
3. T3V
2.21

Request: Identify the reported protein stability index for the following entry. `L22N`
Result: 3.5

Request: Tell me measured protein stability index for `E24C` please.
Result: 2.04

Request: Given `I16V` , respond with its protein stability index.
Result: 2.76

Request: Let me know recorded protein stability index for `G4I` , thanks.
Result: 2.56

Request: Tell me its protein stability index given `M14W` as the entry.
Result: 1.82
